# Test system: 171881-019-R-J1-PDC multicell spheroid viability
# ASSAY REMARKS: Anticancer human tumor 171881-019-R-J1-PDC patient-derived invasive breast carcinoma cell line growth inhibition [IpAb]
# PARTICULARS: curve of first compound; second compound 0.0316 µM
pIC50: −log10 of the molar value.
ASSAY READOUT: pIC50

{"MOLECULE": "C=CC(=O)N1CCN(c2nc(=O)n(-c3c(C)ccnc3C(C)C)c3nc(-c4c(O)cccc4F)c(F)cc23)C(C)C1 (stereo not given) + CCN1CCN(Cc2ccc(Nc3ncc(F)c(-c4cc(F)c5nc(C)n(C(C)C)c5c4)n3)nc2)CC1", "ASSAY READOUT": "pIC50", "CENSORING QUALIFIER": "=", "EXPERIMENTAL RESULT": 5.02}
{"MOLECULE": "C=CCn1c(=O)c2cnc(Nc3ccc(N4CCN(C)CC4)cc3)nc2n1-c1cccc(C(C)(C)O)n1 + CCN1CCN(Cc2ccc(Nc3ncc(F)c(-c4cc(F)c5nc(C)n(C(C)C)c5c4)n3)nc2)CC1", "ASSAY READOUT": "pIC50", "CENSORING QUALIFIER": "=", "EXPERIMENTAL RESULT": 6.00}
{"MOLECULE": "CC1(C)CCC(CN2CCN(c3ccc(C(=O)NS(=O)(=O)c4ccc(NCC5CCOCC5)c([N+](=O)[O-])c4)c(Oc4cnc5[nH]ccc5c4)c3)CC2)=C(c2ccc(Cl)cc2)C1 + CCN1CCN(Cc2ccc(Nc3ncc(F)c(-c4cc(F)c5nc(C)n(C(C)C)c5c4)n3)nc2)CC1", "ASSAY READOUT": "pIC50", "CENSORING QUALIFIER": "=", "EXPERIMENTAL RESULT": 5.21}
{"MOLECULE": "Cn1cnc2c(F)c(Nc3ccc(Br)cc3Cl)c(C(=O)NOCCO)cc21 + CCN1CCN(Cc2ccc(Nc3ncc(F)c(-c4cc(F)c5nc(C)n(C(C)C)c5c4)n3)nc2)CC1", "ASSAY READOUT": "pIC50", "CENSORING QUALIFIER": "=", "EXPERIMENTAL RESULT": 5.95}
{"MOLECULE": "Cn1ncnc1[C@H]1c2n[nH]c(=O)c3cc(F)cc(c23)N[C@@H]1c1ccc(F)cc1 + CCN1CCN(Cc2ccc(Nc3ncc(F)c(-c4cc(F)c5nc(C)n(C(C)C)c5c4)n3)nc2)CC1", "ASSAY READOUT": "pIC50", "CENSORING QUALIFIER": "<", "EXPERIMENTAL RESULT": 7.00}

----------
# Tested on: 171881-019-R-J1-PDC multicell spheroid viability
# ASSAY REMARKS: Anticancer human tumor 171881-019-R-J1-PDC cell line growth inhibition [IpAb];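 note: spheroids exposed to the agents for seven days before readout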
# PARTICULARS: second compound 0.0316 µM; first compound 3.16 µM; stronger effect = lower value
Attribute: viability, T/C

{"COMPOUND": "C=CCn1c(=O)c2cnc(Nc3ccc(N4CCN(C)CC4)cc3)nc2n1-c1cccc(C(C)(C)O)n1 + CCN1CCN(Cc2ccc(Nc3ncc(F)c(-c4cc(F)c5nc(C)n(C(C)C)c5c4)n3)nc2)CC1", "viability, T/C / %": 35}
{"COMPOUND": "C=CC(=O)N1CCN(c2nc(=O)n(-c3c(C)ccnc3C(C)C)c3nc(-c4c(O)cccc4F)c(F)cc23)C(C)C1 (configuration not stated) + CCN1CCN(Cc2ccc(Nc3ncc(F)c(-c4cc(F)c5nc(C)n(C(C)C)c5c4)n3)nc2)CC1", "viability, T/C / %": 91.5}
{"COMPOUND": "Cn1nccc1Nc1nccc(-c2ccn(C(CO)c3ccc(Cl)c(F)c3)c(=O)c2)n1 (configuration not stated) + CCN1CCN(Cc2ccc(Nc3ncc(F)c(-c4cc(F)c5nc(C)n(C(C)C)c5c4)n3)nc2)CC1", "viability, T/C / %": 29.2}
{"COMPOUND": "Cc1nc(NC(=O)N2CCCC2C(N)=O)sc1-c1ccnc(C(C)(C)C(F)(F)F)c1 (configuration not stated) + CCN1CCN(Cc2ccc(Nc3ncc(F)c(-c4cc(F)c5nc(C)n(C(C)C)c5c4)n3)nc2)CC1", "viability, T/C / %": 13.5}
{"COMPOUND": "CC1(C)CCC(CN2CCN(c3ccc(C(=O)NS(=O)(=O)c4ccc(NCC5CCOCC5)c([N+](=O)[O-])c4)c(Oc4cnc5[nH]ccc5c4)c3)CC2)=C(c2ccc(Cl)cc2)C1 + CCN1CCN(Cc2ccc(Nc3ncc(F)c(-c4cc(F)c5nc(C)n(C(C)C)c5c4)n3)nc2)CC1", "viability, T/C / %": 89.3}
{"COMPOUND": "CCCS(=O)(=O)Nc1ccc(F)c(C(=O)c2c[nH]c3ncc(-c4ccc(Cl)cc4)cc23)c1F + CCN1CCN(Cc2ccc(Nc3ncc(F)c(-c4cc(F)c5nc(C)n(C(C)C)c5c4)n3)nc2)CC1", "viability, T/C / %": 85.4}
{"COMPOUND": "Cn1ncc(Cl)c1-c1cc(C(=O)NC(CN)Cc2cccc(F)c2)sc1Cl (configuration not stated) + CCN1CCN(Cc2ccc(Nc3ncc(F)c(-c4cc(F)c5nc(C)n(C(C)C)c5c4)n3)nc2)CC1", "viability, T/C / %": 4.15}
